test system: VDR:RXRa (NR concentration 270 nM, RXRa partner concentration 90 nM); test: PBM binding z-score (relative to random genomic background probes); higher = stronger binding; sequences stand for … in GC…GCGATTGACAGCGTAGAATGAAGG
Label true for high-side PBM binding z-score (at or above 0.9) and false for low-side PBM binding z-score (below it).

Answer whether PBM binding z-score of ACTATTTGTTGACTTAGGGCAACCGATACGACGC is greater than or equal to 0.9.
false

Is PBM binding z-score for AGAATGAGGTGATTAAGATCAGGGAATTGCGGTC at or above 0.9?
false

Entry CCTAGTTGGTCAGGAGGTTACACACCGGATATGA : is its PBM binding z-score no less than 0.9?
false

Quick check, PBM binding z-score >= 0.9? TCTAGCAGGCCAGAGGGTCATTCAAGAGGTACGG
true

Determine whether this sequence has PBM binding z-score no lower than 0.9: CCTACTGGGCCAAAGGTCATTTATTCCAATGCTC
true

Form field: PBM binding z-score at least 0.9? Entry: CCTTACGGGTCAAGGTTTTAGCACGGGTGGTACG
true

Hi, just wondering whether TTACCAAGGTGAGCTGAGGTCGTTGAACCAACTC shows PBM binding z-score of 0.9 or higher.
true

Given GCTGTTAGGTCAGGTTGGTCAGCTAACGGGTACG , state whether its PBM binding z-score is at least 0.9.
true

Identify whether the reported PBM binding z-score of the following sequence is 0.9 or greater: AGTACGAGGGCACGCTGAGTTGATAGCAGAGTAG
true

Reported PBM binding z-score at or above 0.9? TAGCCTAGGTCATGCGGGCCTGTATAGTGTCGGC
true

Threshold query (PBM binding z-score >= 0.9) on CCAGACGGGTGAGAAGGTAACTCAGCCTCGATTA
false

Is PBM binding z-score for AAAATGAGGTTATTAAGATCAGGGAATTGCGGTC at or above 0.9?
true

Tell me whether PBM binding z-score is at least 0.9 here: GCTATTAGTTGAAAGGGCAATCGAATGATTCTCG
false

Test whether the sequence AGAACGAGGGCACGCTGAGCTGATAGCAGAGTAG records PBM binding z-score of 0.9 or higher.
false

Has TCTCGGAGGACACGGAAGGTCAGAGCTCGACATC a recorded PBM binding z-score greater than or equal to 0.9?
true

Test whether the sequence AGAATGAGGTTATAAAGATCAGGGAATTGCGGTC records PBM binding z-score of 0.9 or higher.
true

Does the reported PBM binding z-score for CCTAGCAGGCCAATCTGGGTCACCCAAGGCTTGA fall at or above the 0.9 mark?
false

Can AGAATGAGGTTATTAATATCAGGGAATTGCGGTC be said to have PBM binding z-score at or above 0.9?
true

Determine whether measured PBM binding z-score meets or exceeds 0.9 for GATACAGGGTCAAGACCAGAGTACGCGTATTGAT
true

Please indicate if the recorded PBM binding z-score for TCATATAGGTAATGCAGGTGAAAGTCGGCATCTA meets or exceeds 0.9.
false

Check the entry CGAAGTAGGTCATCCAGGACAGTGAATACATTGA : does PBM binding z-score equal or exceed 0.9?
true

# bool: PBM binding z-score of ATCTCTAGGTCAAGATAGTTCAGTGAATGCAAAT >= 0.9
true

# check: PBM binding z-score of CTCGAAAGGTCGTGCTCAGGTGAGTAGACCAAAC is greater than or equal to 0.9
true

For this sequence, is measured PBM binding z-score 0.9 or higher? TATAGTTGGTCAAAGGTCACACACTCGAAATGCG
true

Please indicate if the recorded PBM binding z-score for CTACCAAGGTGAACAAGGTCGATGATTACTATTC meets or exceeds 0.9.
true
